Please respond with reported IC50 for every item in the list.
Target: EML4-ALK-BaF3 (Homo sapiens)
Construct: expressed in transfected cells; host or cells: Ba/F3 cells; the other entry of the earlier key: EML4 (Q9HC35, Echinoderm microtubule-associated protein-like 4)
Sequence (Q9UM73 1058-1620 limits assumed): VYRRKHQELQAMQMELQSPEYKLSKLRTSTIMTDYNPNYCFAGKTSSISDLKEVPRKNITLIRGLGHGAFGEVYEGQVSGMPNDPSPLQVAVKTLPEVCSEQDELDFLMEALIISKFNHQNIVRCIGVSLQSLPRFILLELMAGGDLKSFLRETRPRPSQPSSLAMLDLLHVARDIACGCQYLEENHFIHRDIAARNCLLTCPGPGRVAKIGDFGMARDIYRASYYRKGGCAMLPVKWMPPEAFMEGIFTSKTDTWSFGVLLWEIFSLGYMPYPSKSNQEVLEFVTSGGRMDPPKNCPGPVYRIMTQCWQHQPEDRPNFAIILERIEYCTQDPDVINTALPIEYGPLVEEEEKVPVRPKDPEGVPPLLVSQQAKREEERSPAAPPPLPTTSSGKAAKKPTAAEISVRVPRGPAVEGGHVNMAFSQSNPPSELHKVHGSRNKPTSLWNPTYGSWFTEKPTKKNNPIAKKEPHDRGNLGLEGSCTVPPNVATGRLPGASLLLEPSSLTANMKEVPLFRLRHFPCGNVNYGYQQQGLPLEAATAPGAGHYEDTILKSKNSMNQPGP
Assay: Growth inhibition of EML4-ALK transformed BaF3 cells (MTS)
Format: cell-based
Details: EML4-ALK-BaF3 cells, 48 hours, MTS; Table 11

# example entries with known answers
INSERT INTO measurements (compound, value) VALUES
  ('CNc1nc(Nc2ccc(S(N)(=O)=O)cc2)nc2cc[nH]c12 [IQ-4]', '> 10000 nM'),
  ('COc1cc(N2CCN(C)CC2)ccc1Nc1nc(NCc2ccccc2SC(C)C)c2[nH]ccc2n1 [IM-1]', '~300 nM'),
  ('COC(=O)c1ccccc1Sc1nc(Nc2ccc(N3CCN(C)CC3)cc2OC)nc2cc[nH]c12 [IU-1]', '> 10000 nM'),
  ('COC(=O)c1ccccc1Nc1nc(Nc2ccc(N3CCN(C)CC3)cn2)nc2cc[nH]c12 [IG-13]', '> 10000 nM'),
  ('CN1CCN(c2ccc(Nc3nc(NCc4ccccc4S(C)(=O)=O)c4[nH]ccc4n3)cc2)CC1 [IN-5]', '> 10000 nM');

In the following, a different compound is considered.
Prompt line: Reported IC50 for CNc1nc(Nc2ccc(C(=O)N3CCN(C)CC3)cc2OC)nc2cc[nH]c12 [IQ-6] : what is it?
Response line: > 10000 nM
